This collection of values is drawn from patent US20260138978A1.

Molecular target: human mAChRM1 (Homo sapiens)
Construct: host or cells: CHO-K1
Sequence (P11229 whole entry): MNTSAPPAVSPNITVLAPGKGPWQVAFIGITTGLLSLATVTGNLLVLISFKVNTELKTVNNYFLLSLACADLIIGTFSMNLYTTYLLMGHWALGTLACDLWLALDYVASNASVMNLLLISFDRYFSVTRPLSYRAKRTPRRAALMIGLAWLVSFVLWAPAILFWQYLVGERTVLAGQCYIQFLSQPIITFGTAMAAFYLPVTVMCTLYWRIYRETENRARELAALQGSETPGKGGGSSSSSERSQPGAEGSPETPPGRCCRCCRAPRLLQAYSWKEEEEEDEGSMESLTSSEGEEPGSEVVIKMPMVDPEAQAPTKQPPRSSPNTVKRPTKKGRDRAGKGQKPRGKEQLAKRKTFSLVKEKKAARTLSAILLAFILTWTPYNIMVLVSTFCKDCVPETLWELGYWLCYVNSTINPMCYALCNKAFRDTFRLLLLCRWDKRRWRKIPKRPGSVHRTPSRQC
Assay: mAChR M1 cell-based functional assay (calcium mobilization), agonist activity upon compound addition, Emax relative to acetylcholine maximum
Conditions: relative to the maximum for acetylcholine
READOUT_KIND: Emax

Cn1cc2cc(-c3cc(F)c(CN4Cc5ncccc5C4=O)c(Cl)c3)cc(C(C)(C)O)c2n1	12%

Given `Cn1cc2c(-c3cc(F)c(CN4Cc5cccnc5C4=O)c(N4CCC4)c3)ccc(C(C)(C)O)c2n1` , state its recorded Emax. 23%

Request: `CC(C)(O)c1cc(-c2cc(F)c(CN3Cc4ncccc4C3=O)c(F)c2)cc2cccnc12` 8%

Next compound: [2H]C1([2H])c2ncccc2C(=O)N1Cc1c(F)cc(-c2ccc(C(C)(C)O)c3nn(C)cc23)cc1C1CC1 (single isomer, unassigned) 68%

Okay, and `Cn1cc2c(-c3cc(F)c(CN4Cc5nccnc5C4=O)c(F)c3)ccc(C(C)(C)O)c2n1` ? 17%

// same read-out, input: `[2H]C([2H])([2H])C(O)(c1ccc(-c2cc(F)c(CN3Cc4ncccc4C3=O)c(F)c2)c2cn(C)nc12)C([2H])([2H])[2H]` 22%

`Cc1cc(-c2ccc(C(C)(C)O)c3nn(C)cc23)cc(F)c1CN1Cc2cccc(F)c2C1=O` , same question. 19%

What do we get for `Cn1cc2c(-c3cc(F)c(CN4Cc5ncccc5C4=O)cc3F)ccc(C(C)(C)O)c2n1` ? 30%
